- tested.target: JAK2 JH1 JH2 (human)
- measurement.notes: radiometric filter-binding kinase assay, Kinase HotSpot
- experimental.context: compound 0.5 µM; ATP 10 µM
metric: residual activity (%)

compound=CCCC(=O)Oc1ccc2[nH]c(C(=O)c3cc4ccccc4[nH]3)cc2c1 metric="residual activity" measurement_units=% measured_value=106
compound=CCN(CC)C(=O)c1ccc(Nc2nc(OCC3CCCCC3)c3nc[nH]c3n2)cc1 metric="residual activity" measurement_units=% measured_value=4.21
compound=O=S(=O)(c1cccc2cnccc12)N1CCCNCC1 metric="residual activity" measurement_units=% measured_value=107
compound=CC(C)N(CCC(=O)c1ccc2ccccc2c1)Cc1ccccc1 metric="residual activity" measurement_units=% measured_value=97.5
compound="CO[C@H]1CC2CC[C@@H](C)[C@@](O)(O2)C(=O)C(=O)N2CCCC[C@H]2C(=O)OC([C@H](C)C[C@@H]2CC[C@@H](O)[C@H](OC)C2)CC(=O)[C@H](C)/C=C(\\C)[C@@H](O)[C@@H](OC)C(=O)[C@H](C)C[C@H](C)/C=C/C=C/C=C/1C (stereo partly specified)" metric="residual activity" measurement_units=% measured_value=97.5
compound=Oc1cccc(-c2nc(N3CCOCC3)c3oc4ncccc4c3n2)c1 metric="residual activity" measurement_units=% measured_value=92.6
compound=CCN(CC)CCNC(=O)c1c(C)[nH]c(/C=C2\C(=O)Nc3ccc(F)cc32)c1C metric="residual activity" measurement_units=% measured_value=88.8
compound=c1ccc(-c2n[nH]cc2-c2ccnc3ccccc23)nc1 metric="residual activity" measurement_units=% measured_value=107
compound=Cc1ccc(S(=O)(=O)/C=C/C#N)cc1 metric="residual activity" measurement_units=% measured_value=99.5
compound=CNc1cc2c(Nc3cccc(Br)c3)ncnc2cn1 metric="residual activity" measurement_units=% measured_value=82.1
compound=Nc1cccc(-c2cc3c(Oc4cccc(O)c4)ncnc3[nH]2)c1 metric="residual activity" measurement_units=% measured_value=85.4

====

- tested.target: DYRK1A (human)
- measurement.notes: radiometric filter-binding kinase assay, Kinase HotSpot
- experimental.context: compound 0.5 µM; ATP 10 µM
metric: residual activity (%)

smiles_data=Nc1ccc2ncnc(NCCc3ccc(Oc4ccccc4)cc3)c2c1 measurement_units=% measured_value=101
smiles_data=CNc1cc2c(Nc3cccc(Br)c3)ncnc2cn1 measurement_units=% measured_value=95.6
smiles_data=O=C1NC(=O)C(c2cn(CCCn3ccnc3)c3ccccc23)=C1Nc1ccccc1 measurement_units=% measured_value=30.8
smiles_data=c1ccc(-c2n[nH]cc2-c2ccnc3ccccc23)nc1 measurement_units=% measured_value=90.9
smiles_data=c1ccc(-c2n[nH]c3c2oc2ccccc23)cc1 measurement_units=% measured_value=114
smiles_data=COc1cc2ncnc(Nc3cccc(Cl)c3)c2cc1OC measurement_units=% measured_value=90.7
smiles_data=CCOC(=O)c1c(C)[nH]c(/C=C2\C(=O)Nc3ccccc32)c1C measurement_units=% measured_value=95.7
smiles_data=COc1ccc(COc2ccc(Cc3cnc(N)nc3N)cc2OC)cc1 measurement_units=% measured_value=88.1
smiles_data=Nc1ncnc2[nH]nc(Nc3ccc(F)cc3)c12 measurement_units=% measured_value=86.4
smiles_data=CCN(CC)CCNC(=O)c1c(C)[nH]c(/C=C2\C(=O)Nc3ccc(F)cc32)c1C measurement_units=% measured_value=56.9
smiles_data=N#CC(C#N)=C(N)/C(C#N)=C/c1ccc(O)cc1 measurement_units=% measured_value=95.9

This collection of values is drawn from the kinase profiling compilation of Christmann-Franck et al. (2016).
